# cell viability annotations
Test system: HCI03 (cells of an ER-positive luminal breast cancer xenograft)
Measurement notes: cell viability (% of vehicle); higher = less cytotoxic
Recorded conditions: 10 µM; 72 h
# print the numeric value only

Exercise: Looking for the measured cell viability of CC(=O)OCC(=O)NCCCOc1cccc(CN2CCCCC2)c1.Cl [Roxatidine Acetate HCl] , can you help?
Solution: 118

Exercise: Consider next the compound CN1CCCC[C@H]1CCN1c2ccccc2Sc2ccc(S(C)=O)cc21.O=S(=O)(O)c1ccccc1 (some centres undefined) [Mesoridazine Besylate] in the same way.
Solution: 77.9

Exercise: Consider next the compound COc1ccnc(C[S+]([O-])c2nc3cc(OC(F)F)ccc3[nH]2)c1OC (centres undefined) in the same way.
Solution: 133

Exercise: Consider next the compound CC(C)c1nc(CN(C)C(=O)NC(C(=O)NC(Cc2ccccc2)CC(O)C(Cc2ccccc2)NC(=O)OCc2cncs2)C(C)C)cs1 (centres undefined) in the same way.
Solution: 98

Exercise: Consider next the compound Cc1onc(-c2ccccc2)c1C(=O)NC1C(=O)N2C1SC(C)(C)C2C(=O)[O-].O.[Na+] (centres undefined) [Oxacillin sodium monohydrate] in the same way.
Solution: 150

Exercise: Consider next the compound O=C(NCCO[N+](=O)[O-])c1cccnc1 in the same way.
Solution: 135

Exercise: Consider next the compound CC1(C)OC2COC3(COS(N)(=O)=O)OC(C)(C)OC3C2O1 (centres undefined) [Topiramate] in the same way.
Solution: 128

Exercise: Consider next the compound CC=C1NC(=O)C2CSSCCC=CC(CC(=O)NC(C(C)C)C(=O)N2)OC(=O)C(C(C)C)NC1=O (centres undefined) [Romidepsin (FK228, depsipeptide)] in the same way.
Solution: 177

Exercise: Consider next the compound COc1cc2nc(N3CCN(C(=O)C4COc5ccccc5O4)CC3)nc(N)c2cc1OC.CS(=O)(=O)O (centres undefined) [Doxazosin Mesylate] in the same way.
Solution: 94.7

###

Tested on: WHIM2 (cells of a triple-negative basal-like breast cancer xenograft)
Measurement notes: cell viability (% of vehicle); higher = less cytotoxic
Recorded conditions: 10 µM; 72 h
Exam item: assign t to entries whose cell viability is below 100 and f to entries at or above 100. Note that a value of exactly 100 receives f.

[
  {
    "Compound": "CC(=O)OCC(=O)[C@@]12OC(C)(C)O[C@@H]1C[C@H]1[C@@H]3C[C@H](F)C4=CC(=O)C=C[C@]4(C)[C@@]3(F)[C@@H](O)C[C@@]12C [Fluocinonide]",
    "Category label": "t"
  }
]

Pending compound:
Exercise: cell viability under 100? Item: CCOC(=O)[C@H](CCc1ccccc1)N[C@@H](C)C(=O)N1[C@H](C(=O)O)C[C@H]2CCCC[C@@H]21 [Trandolapril]
Solution: f

###

System: HCI03
Measurement notes: cell viability (% of vehicle); higher = less cytotoxic
Recorded conditions: 10 µM; 72 h
Measured property: cell viability
# print the numeric value only

Use the examples below as a reference point.
[
  {
    "Molecule": "N=C(NCCCCCCNC(=N)NC(=N)Nc1ccc(Cl)cc1)NC(=N)Nc1ccc(Cl)cc1 [Chlorhexidine digluconate]",
    "cell viability": 118
  },
  {
    "Molecule": "CCOC(=O)c1ccc(C#Cc2ccc3c(c2)C(C)(C)CCS3)nc1",
    "cell viability": 108
  },
  {
    "Molecule": "CC(=O)OCC(=O)C1CCC2C3CCC4=CC(=O)CCC4(C)C3CCC12C (stereo unspecified) [Deoxycorticosterone acetate]",
    "cell viability": 132
  },
  {
    "Molecule": "COc1ccc(CC2c3cc(OC)c(OC)cc3CC[N+]2(C)CCC(=O)OCCCCCOC(=O)CC[N+]2(C)CCc3cc(OC)c(OC)cc3C2Cc2ccc(OC)c(OC)c2)cc1OC.O=S(=O)([O-])c1ccccc1.O=S(=O)([O-])c1ccccc1 (stereo unspecified) [Cisatracurium Besylate]",
    "cell viability": 129
  },
  {
    "Molecule": "N.N.O=C([O-])C1(C(=O)[O-])CCC1.[Pt+2]",
    "cell viability": 82.7
  }
]

Switching to the query record.
Exercise: Looking for the measured cell viability of O=C(NC1CCN(CCCCC2(C(=O)NCC(F)(F)F)c3ccccc3-c3ccccc32)CC1)c1ccccc1-c1ccc(C(F)(F)F)cc1 [Lomitapide] , can you help?
Solution: 49.3

###

System: WHIM2
Measurement notes: cell viability (% of vehicle); higher = less cytotoxic
Recorded conditions: 10 µM; 72 h
Exam item: assign 1 (yes) to entries whose cell viability is below 100 and 0 (no) to entries at or above 100. Note that a value of exactly 100 receives 0 (no).

Please review the following examples before continuing.
[
  {
    "Molecule": "CN1C[C@@H]2c3ccccc3Oc3ccc(Cl)cc3[C@H]2C1.O=C(O)/C=C/C(=O)O [Asenapine]",
    "Tested system": "WHIM2",
    "Category label": "1 (yes)"
  },
  {
    "Molecule": "OCC1OC(Oc2cc(O)cc(C=Cc3ccc(O)cc3)c2)C(O)C(O)C1O (centres undefined) [Polydatin]",
    "Tested system": "WHIM2",
    "Category label": "0 (no)"
  }
]

Exercise: cell viability under 100? Item: COc1ccc(CN2CCN(C(c3ccc(F)cc3)c3ccc(F)cc3)CC2)c(OC)c1OC.Cl.Cl [Lomerizine HCl]
Solution: 1 (yes)

Exercise: Consider next the molecule CN(C)c1ccc(O)c2c1CC1CC3C(N(C)C)C(=O)C(C(N)=O)=C(O)C3(O)C(=O)C1=C2O.Cl (centres undefined) [Minocycline HCl] in the same way.
Solution: 1 (yes)

Exercise: Consider next the molecule COc1ccc2[nH]cc(CCNC(C)=O)c2c1 [Melatonin] in the same way.
Solution: 0 (no)

Exercise: Consider next the molecule CCC(=O)NCCC1CCc2ccc3c(c21)CCO3 (centres undefined) [Ramelteon] in the same way.
Solution: 1 (yes)

Exercise: Consider next the molecule CC(O)(P(=O)(O)O)P(=O)(O)O [Etidronate] in the same way.
Solution: 0 (no)

###

Tested on: UCD52 (cells of a triple-negative basal-like breast cancer xenograft)
Measurement notes: cell viability (% of vehicle); higher = less cytotoxic
Recorded conditions: 10 µM; 72 h
Measured property: cell viability
# print the numeric value only

Use the examples below as a reference point.
[
  {
    "Molecule": "COc1cc(C(C)=O)ccc1OCCCN1CCC(c2noc3cc(F)ccc23)CC1 [Iloperidone]",
    "Result number": 88.2
  },
  {
    "Molecule": "Cl.N=C(N=C(N)N)N1CCOCC1 [Moroxydine HCl]",
    "Result number": 88
  },
  {
    "Molecule": "Nc1nc(=O)n(C2CSC(CO)O2)cc1F (stereo unspecified) [Emtricitabine]",
    "Result number": 79.8
  }
]

Exercise: Looking for the measured cell viability of COc1cc(C=CC(=O)CC(=O)C=Cc2ccc(O)c(OC)c2)ccc1O [Curcumin] , can you help?
Solution: 127

Exercise: Consider next the molecule COc1nc(C)cnc1NS(=O)(=O)c1cccnc1-c1ccc(-c2nnco2)cc1 [Zibotentan (ZD4054)] in the same way.
Solution: 97.9

Exercise: Consider next the molecule CC1(C)O[C@@H]2C[C@H]3[C@@H]4CCC5=CC(=O)C=C[C@]5(C)[C@@]4(F)[C@@H](O)C[C@]3(C)[C@]2(C(=O)CO)O1 [Triamcinolone Acetonide] in the same way.
Solution: 198

###

# cell viability annotations
Test system: HCI01 (cells of a triple-negative basal-like breast cancer xenograft);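 note: cells dissociated from PDX tumors propagated in female NSG mouse mammary fat pads, vehicle control 0.1% DMSO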
Measurement notes: cell viability (% of vehicle); higher = less cytotoxic
Recorded conditions: 1 µM; 72 h
# print the numeric value only

Use the examples below as a reference point.
[
  {
    "Compound": "Cc1cc(-n2c(=O)[nH]c(=O)n(C)c2=O)ccc1Oc1ccc(SC(F)(F)F)cc1",
    "Tested system": "HCI01",
    "cell viability": 90.8
  },
  {
    "Compound": "CCOc1cc2ncc(C#N)c(Nc3ccc(F)c(Cl)c3)c2cc1NC(=O)C=CCN(C)C [Pelitinib (EKB-569)]",
    "Tested system": "HCI01",
    "cell viability": 98.5
  },
  {
    "Compound": "COc1cc(C(=O)O)ccc1NC(=O)C1NC(CC(C)(C)C)C(C#N)(c2ccc(Cl)cc2F)C1c1cccc(Cl)c1F (stereo unspecified)",
    "Tested system": "HCI01",
    "cell viability": 95.1
  },
  {
    "Compound": "CC1CC(=O)NN=C1c1ccc(NN=C(C#N)C#N)cc1 (stereo unspecified)",
    "Tested system": "HCI01",
    "cell viability": 89.2
  },
  {
    "Compound": "COc1cccc2c1C(=O)c1c(O)c3c(c(O)c1C2=O)CC(O)(C(=O)CO)CC3OC1CC(N)C(O)C(C)O1 (stereo unspecified)",
    "Tested system": "HCI01",
    "cell viability": 80.1
  }
]

Exercise: Looking for the measured cell viability of Br.Cc1ccc(Sc2ccccc2N2CCNCC2)c(C)c1 , can you help?
Solution: 113

Exercise: Consider next the compound CC[C@H](C)[C@H]1O[C@]2(CC[C@@H]1C)C[C@@H]1C[C@@H](C/C=C(\C)[C@@H](O[C@H]3C[C@H](OC)[C@@H](O[C@H]4C[C@H](OC)[C@@H](O)[C@H](C)O4)[C@H](C)O3)[C@@H](C)/C=C/C=C3\CO[C@@H]4[C@H](O)C(C)=C[C@@H](C(=O)O1)[C@]34O)O2 in the same way.
Solution: 90.6

Exercise: Consider next the compound COc1cc2c(Nc3ccc(Br)cc3F)ncnc2cc1OCC1CCN(C)CC1 [Vandetanib (ZD6474)] in the same way.
Solution: 70

Exercise: Consider next the compound COc1cccc2c1C(=O)c1c(O)c3c(c(O)c1C2=O)C[C@@](O)(C(C)=O)C[C@@H]3O[C@H]1C[C@H](N)[C@H](O)[C@H](C)O1.Cl [Daunorubicin HCl] in the same way.
Solution: 128

Exercise: Consider next the compound CCCCc1oc2ccc(NS(C)(=O)=O)cc2c1C(=O)c1ccc(OCCCN(CCCC)CCCC)cc1 in the same way.
Solution: 98.7

Exercise: Consider next the compound COCCOC(=O)C1=C(C)NC(C)=C(C(=O)OCC=Cc2ccccc2)C1c1cccc([N+](=O)[O-])c1 (stereo unspecified) in the same way.
Solution: 111
